# PROCEDURE SUMMARY: Half life in rat at 1 mg/kg, iv measured after 12 hrs
# Assay type: ADME, organism-based
# EXPERIMENTAL SETUP: in vivo
RECORDED METRIC: half-life (h)

# COMPOUND, half-life, h
rows = [
    ("C[C@H]1CCN1c1nc(-c2cnn(CC(=O)N3C[C@H](O)[C@@H](O)C3)c2)cc(C(F)(F)F)c1C#N", 0.5),
    ("OC[C@H]1CCN1c1nc(-c2cnn(C3CCNCC3)c2)cc(C(F)(F)F)n1", 4.3),
    ("C[C@H]1CCN1c1nc(-c2cnn(CC(=O)N3CCNCC3)c2)cc(C(F)(F)F)n1 [LY-3522348]", 13),
    ("C[C@H]1CCN1c1nc(-c2cnn(CC(=O)NCCO)c2)cc(C(F)(F)F)c1C#N", 2.2),
    ("OC[C@H]1CCN1c1nc(-c2cnn(C3CNC3)c2)cc(C(F)(F)F)n1", 0.7),
]

A. C[C@H]1CCN1c1nc(-c2cnn(CC(=O)N(CCO)CCO)c2)cc(C(F)(F)F)c1C#N
B. C[C@H]1CCN1c1nc(-c2cnn(CC(=O)N3C[C@@H](O)[C@H](O)C3)c2)cc(C(F)(F)F)c1C#N
Compare A and B and name the one whose reported half-life is smaller. Your answer should be the label of the entry you select.
B

###

# STUDY TARGET: Ketohexokinase (Homo sapiens)
# PROCEDURE SUMMARY: Inhibition of KHK in human HepG2 cells incubated for 3 hrs by Rapidfire MS analysis
# Assay type: cell-based
pIC50: −log10 of the molar value.
RECORDED METRIC: pIC50

# example entries with known answers
# CHEM SMILES, STUDY TARGET, NUMERIC VALUE
rows = [
    ("C[C@H]1CCN1c1nc(-c2cnn(CC(=O)N(CCO)CCO)c2)cc(C(F)(F)F)c1C#N", "Ketohexokinase (Homo sapiens)", 6.99),
    ("C[C@H]1CCN1c1nc(-c2cnn(CC(=O)NCCO)c2)cc(C(F)(F)F)c1C#N", "Ketohexokinase (Homo sapiens)", 7.08),
    ("C[C@H]1CCN1c1nc(-c2cnn(CC(=O)N3C[C@H](O)[C@@H](O)C3)c2)cc(C(F)(F)F)c1C#N", "Ketohexokinase (Homo sapiens)", 7.12),
    ("C[C@H]1CCN1c1nc(-c2cnn(CCN(C)C)c2)cc(C(F)(F)F)c1C#N", "Ketohexokinase (Homo sapiens)", 7.09),
    ("C[C@H]1CCN1c1nc(-c2cnn(C3CCN(C(=O)CN)CC3)c2)cc(C(F)(F)F)c1C#N", "Ketohexokinase (Homo sapiens)", 7.80),
]

a. C[C@H]1CCN1c1nc(-c2cnn(C3CNC3)c2)cc(C(F)(F)F)c1C#N
b. C[C@H]1CCN1c1nc(-c2cnn(C3CCN(CCO)CC3)c2)cc(C(F)(F)F)c1C#N
Of a and b , whose reported pIC50 is the larger number? Your answer should be the label of the entry you select.
a
(a: 8.70, b: 7.82)

P. OC[C@H]1CCN1c1nc(-c2cnn(C3CNC3)c2)cc(C(F)(F)F)n1
Q. CC(=O)N1CCC(n2cc(-c3cc(C(F)(F)F)c(C#N)c(N4CC[C@@H]4C)n3)cn2)CC1
Compare P and Q and name the one whose reported pIC50 is smaller. Your answer should be the label of the entry you select.
Q

###

# PROCEDURE SUMMARY: Volume of distribution in rat at 1 mg/kg, iv measured after 12 hrs
# Assay type: ADME, organism-based
# EXPERIMENTAL SETUP: in vivo
RECORDED METRIC: Vd (L/kg)

# CHEM SMILES, Vd, L/kg
records = [
    ("C[C@H]1CCN1c1nc(-c2cnn(CC(=O)N3C[C@@H](O)[C@H](O)C3)c2)cc(C(F)(F)F)c1C#N", 3.3),
    ("OC[C@H]1CCN1c1nc(-c2cnn(C3CCNCC3)c2)cc(C(F)(F)F)n1", 17),
    ("C[C@H]1CCN1c1nc(-c2cnn(CC(=O)N3CCNCC3)c2)cc(C(F)(F)F)n1", 6.5),
]

I. C[C@H]1CCN1c1nc(-c2cnn(CC(=O)N3C[C@H](O)[C@@H](O)C3)c2)cc(C(F)(F)F)c1C#N
II. C[C@H]1CCN1c1nc(-c2cnn(CC(=O)NCCO)c2)cc(C(F)(F)F)c1C#N
Compare I and II and name the one whose reported Vd is smaller. Your answer should be the label of the entry you select.
II
(II: 2.9 L/kg, I: 4.6 L/kg)

###

# PROCEDURE SUMMARY: Metabolic stability in rat liver microsomes assessed as compound degradation measured after 30 mins
# Type: ADME, Microsome
# EXPERIMENTAL SETUP: read-out: Drug degradation
RECORDED METRIC: metabolised at 0.5 h (%)

# example entries with known answers
# MOLECULE, MEASUREMENT UNITS, metabolised at 0.5 h
data = [
    ("C[C@H]1CCN1c1nc(-c2cnn(C3CCN(C(=O)CN)CC3)c2)cc(C(F)(F)F)c1C#N", "%", 5),
    ("C[C@H]1CCN1c1nc(-c2cnn(CC(=O)N(CCO)CCO)c2)cc(C(F)(F)F)c1C#N", "%", 9),
    ("C[C@H]1CCN1c1nc(-c2cnn(C3CCNCC3)c2)cc(C(F)(F)F)c1C#N", "%", 2),
    ("C[C@H]1CCN1c1nc(-c2cnn(CC(=O)N3C[C@H](O)[C@@H](O)C3)c2)cc(C(F)(F)F)c1C#N", "%", 1),
    ("C[C@H]1CCN1c1nc(-c2cnn(CCO)c2)cc(C(F)(F)F)c1C#N", "%", 99),
]

A. C[C@H]1CCN1c1nc(-c2cn[nH]c2)cc(C(F)(F)F)c1C#N
B. C[C@H]1CCN1c1nc(-c2cnn(C3CCN(C)CC3)c2)cc(C(F)(F)F)c1C#N
C. C[C@H]1CCN1c1nc(-c2cnn(CC(=O)N3C[C@@H](O)[C@H](O)C3)c2)cc(C(F)(F)F)c1C#N
D. C[C@H]1CCN1c1nc(-c2cnn(CC(=O)NCCO)c2)cc(C(F)(F)F)c1C#N
Order field: metabolised at 0.5 h | Direction: descending (largest first) Hello, could you send the labels back in the order asked? Thank you.
A, B, D, C

###

# PROCEDURE SUMMARY: Metabolic stability in human liver microsomes assessed as compound degradation measured after 30 mins
# Type: ADME, Microsome
# EXPERIMENTAL SETUP: read-out: Drug degradation
RECORDED METRIC: metabolised at 0.5 h (%)

# example entries with known answers
# CHEM SMILES, NUMERIC VALUE
records = [
    ("C[C@H]1CCN1c1nc(-c2cnn(CC(=O)N(CCO)CCO)c2)cc(C(F)(F)F)c1C#N", 27),
    ("OC[C@H]1CCN1c1nc(-c2cnn(C3CNC3)c2)cc(C(F)(F)F)n1", 4),
    ("OC[C@H]1CCN1c1nc(-c2cnn(C3CCNCC3)c2)cc(C(F)(F)F)n1", 3),
]

P. C[C@H]1CCN1c1nc(-c2cnn(C3CCN(C(=O)CN)CC3)c2)cc(C(F)(F)F)c1C#N
Q. C[C@H]1CCN1c1nc(-c2cnn(C3CNC3)c2)cc(C(F)(F)F)c1C#N
R. C[C@H]1CCN1c1nc(-c2cn[nH]c2)cc(C(F)(F)F)c1C#N
S. C[C@H]1CCN1c1nc(-c2cnn(CC(=O)NCCO)c2)cc(C(F)(F)F)c1C#N
T. C[C@H]1CCN1c1nc(-c2cnn(C3CCN(CCO)CC3)c2)cc(C(F)(F)F)c1C#N
Order field: metabolised at 0.5 h | Direction: descending (largest first) Hello, could you send the labels back in the order asked? Thank you.
R, T, Q, S, P
(R: 52%, T: 26%, Q: 15%, S: 4%, P: 0%)

###

# STUDY TARGET: Ketohexokinase (Homo sapiens, UniProt P50053)
# Sequence (P50053 whole entry): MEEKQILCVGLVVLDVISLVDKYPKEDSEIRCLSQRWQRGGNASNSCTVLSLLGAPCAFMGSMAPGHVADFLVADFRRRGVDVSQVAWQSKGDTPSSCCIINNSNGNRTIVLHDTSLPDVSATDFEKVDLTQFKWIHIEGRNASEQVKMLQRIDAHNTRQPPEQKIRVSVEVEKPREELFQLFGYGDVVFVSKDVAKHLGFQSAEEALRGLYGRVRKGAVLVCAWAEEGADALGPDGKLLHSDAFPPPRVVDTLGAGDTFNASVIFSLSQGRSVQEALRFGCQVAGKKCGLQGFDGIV
# PROCEDURE SUMMARY: Inhibition of human KHK-A preincubated for 15 mins followed by substrate addition and measured after 20 mins in presence of ATP by Rapidfire MS analysis
pIC50: −log10 of the molar value.
RECORDED METRIC: pIC50

# CHEM SMILES, STUDY TARGET, pIC50
rows = [
    ("C[C@H]1CCN1c1nc(-c2cnn(C3CNC3)c2)cc(C(F)(F)F)c1C#N", "Ketohexokinase (Homo sapiens, UniProt P50053)", 7.82),
]

I. C[C@H]1CCN1c1nc(-c2cnn(CCN(C)C)c2)cc(C(F)(F)F)c1C#N
II. C[C@H]1CCN1c1nc(-c2cnn(C3CCNCC3)c2)cc(C(F)(F)F)n1
III. C[C@H]1CCN1c1nc(-c2cnn(CCO)c2)cc(C(F)(F)F)c1C#N
Please produce an ascending ranking of these molecules based on pIC50. Hello, could you send the labels back in the order asked? Thank you.
I, II, III
